# target.or.test.system: UniProt Q9Y233
# protocol.description: PDE10 fluorescence polarization (IMAP FP) inhibition assay
# Format: biochemical
# condition.info: human PDE10A2 from transfected AD293 cells; FAM-labeled cAMP 50 nM; apparent inhibition constant; read-out: PDE10A Ki
Consider the following compounds; for each one, report its pKi.
# pKi: negative log10 of molar concentration; output just the value

Prompt: Enter pKi (test system UniProt Q9Y233) for COc1ccc([C@H]2C[C@@H]2COc2nc(C)ncc2-c2ccc(C(=O)O)cc2)nc1
Completion: 9.54

Prompt: Enter pKi (test system UniProt Q9Y233) for COc1ccc([C@H]2C[C@@H]2COc2nc(C)ncc2-c2ccc(-c3nc(CO)no3)cc2)nc1
Completion: 9.03

Prompt: Enter pKi (test system UniProt Q9Y233) for COc1ccc([C@H]2C[C@@H]2COc2nc(C)ncc2-c2ccc(C(C)(C)O)nn2)nc1
Completion: 8.40

Prompt: Enter pKi (test system UniProt Q9Y233) for Cc1ccc([C@H]2C[C@@H]2COc2nc(C)ncc2-c2ccc(C(O)C(F)(F)F)nc2)nc1 (some centres unmarked) [Example 145]
Completion: 9.27

Prompt: Enter pKi (test system UniProt Q9Y233) for Cc1ccnc(-c2cnc(C)nc2OC[C@H]2C[C@@H]2c2ccc3ccccc3n2)c1
Completion: 9.92

Prompt: Enter pKi (test system UniProt Q9Y233) for Cc1cccc([C@H]2C[C@@H]2COc2nc(C)ncc2-c2cn(C)nc2C(C)O)n1 (some centres unmarked) [Example 158]
Completion: 9.25

Prompt: Enter pKi (test system UniProt Q9Y233) for CCc1ccc([C@H]2C[C@@H]2COc2nc(C)ncc2-c2ccc(C(C)(C)O)nc2)nc1 (single isomer, unassigned)
Completion: 8.23

Prompt: Enter pKi (test system UniProt Q9Y233) for COc1ccc([C@H]2C[C@@H]2COc2nc(C)ncc2-c2cc(Cl)ncc2OC)nc1
Completion: 9.10

----------
Consider the following molecules; for each one, report its Ki.
# target.or.test.system: human PDE10A2 (Homo sapiens (Human))
# protocol.description: PDE10 fluorescence polarization (IMAP FP) inhibition assay
# Format: biochemical
# condition.info: human PDE10A2 from transfected AD293 cells; FAM-labeled cAMP 50 nM; apparent inhibition constant; read-out: PDE10A Ki
Numeric only. Scale: nM

Prompt: Enter Ki (test system human PDE10A2 (Homo sapiens (Human))) for Cc1cccc([C@H]2C[C@@H]2COc2nc(C)ncc2-c2cn(C)nc2C(C)O)n1 (stereo partly shown) [Example 161]
Completion: 2.28

Prompt: Enter Ki (test system human PDE10A2 (Homo sapiens (Human))) for COc1ccc([C@H]2C[C@@H]2COc2nc(C)ncc2-c2cnsc2)nc1 [Example 73]
Completion: 1.13

Prompt: Enter Ki (test system human PDE10A2 (Homo sapiens (Human))) for Cc1cccc([C@H]2C[C@@H]2COc2nc(C)ncc2-c2ccc(C(C)(C)O)nc2)n1 (single isomer, unassigned) [Example 175]
Completion: 0.2

Prompt: Enter Ki (test system human PDE10A2 (Homo sapiens (Human))) for Cc1ccc([C@H]2C[C@@H]2COc2nc(C)ncc2-c2ccc(OC(C)C)nc2C)nc1 [Example 61]
Completion: 1.51

Prompt: Enter Ki (test system human PDE10A2 (Homo sapiens (Human))) for Cc1ccc([C@H]2C[C@@H]2COc2nc(C)ncc2-c2ccc(C(C)O)nc2)nc1 (stereo partly shown) [Example 148]
Completion: 0.98

Prompt: Enter Ki (test system human PDE10A2 (Homo sapiens (Human))) for Cc1ccc([C@H]2C[C@@H]2COc2nc(C)ncc2C2=CCOCC2)nc1 [Example 51]
Completion: 1.96

Prompt: Enter Ki (test system human PDE10A2 (Homo sapiens (Human))) for Cc1ccc([C@H]2C[C@@H]2COc2nc(C)ncc2-c2cnnc(Br)c2)nc1 [Example 59]
Completion: 4.34

Prompt: Enter Ki (test system human PDE10A2 (Homo sapiens (Human))) for CCOc1cccc(-c2cnc(C)nc2OC[C@H]2C[C@@H]2c2ccc3ccccc3n2)c1 (single isomer, unassigned) [Example 40, 2,2,2-trifluoroacetate]
Completion: 0.04

Prompt: Enter Ki (test system human PDE10A2 (Homo sapiens (Human))) for COc1ccc([C@H]2C[C@@H]2COc2nc(C)ncc2-c2cnc(C(C)(C)O)cn2)nc1 [Example 66]
Completion: 3.14

Prompt: Enter Ki (test system human PDE10A2 (Homo sapiens (Human))) for COc1ccc([C@H]2C[C@@H]2COc2nc(C)ncc2-c2cc(OC)nn2C)nc1 [Example 240]
Completion: 29.9

----------
# Ki measurements, system: human PDE10A2 (Homo sapiens (Human), UniProt Q9Y233)
# Sequence (Q9Y233 267-1055): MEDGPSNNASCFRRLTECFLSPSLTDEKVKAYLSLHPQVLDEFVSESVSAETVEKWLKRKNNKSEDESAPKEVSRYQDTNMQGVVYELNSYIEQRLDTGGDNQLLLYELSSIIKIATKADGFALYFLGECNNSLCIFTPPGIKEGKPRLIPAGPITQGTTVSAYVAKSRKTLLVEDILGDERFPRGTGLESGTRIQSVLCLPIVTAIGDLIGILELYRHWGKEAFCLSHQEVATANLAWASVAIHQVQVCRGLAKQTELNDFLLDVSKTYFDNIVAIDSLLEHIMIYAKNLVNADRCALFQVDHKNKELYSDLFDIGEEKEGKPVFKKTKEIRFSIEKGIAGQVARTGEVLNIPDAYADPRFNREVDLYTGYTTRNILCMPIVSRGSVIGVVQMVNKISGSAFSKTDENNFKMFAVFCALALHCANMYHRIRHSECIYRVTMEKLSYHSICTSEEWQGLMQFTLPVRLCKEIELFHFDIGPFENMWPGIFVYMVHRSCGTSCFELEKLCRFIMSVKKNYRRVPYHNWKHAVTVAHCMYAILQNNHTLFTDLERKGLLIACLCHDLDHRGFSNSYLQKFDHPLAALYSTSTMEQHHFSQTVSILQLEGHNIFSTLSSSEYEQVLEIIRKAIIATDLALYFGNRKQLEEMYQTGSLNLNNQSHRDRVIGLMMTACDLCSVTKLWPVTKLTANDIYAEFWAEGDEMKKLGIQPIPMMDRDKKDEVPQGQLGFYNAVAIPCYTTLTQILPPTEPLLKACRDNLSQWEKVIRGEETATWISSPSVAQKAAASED
Please answer in the form of a number followed by its unit of measurement.

Prompt: Enter Ki (test system human PDE10A2 (Homo sapiens (Human), UniProt Q9Y233)) for Cc1ccc([C@H]2C[C@@H]2COc2nc(C)ncc2-c2cnc(C)cc2C)nc1 [Example 55]
Completion: 0.87 nM

Prompt: Enter Ki (test system human PDE10A2 (Homo sapiens (Human), UniProt Q9Y233)) for COc1cc(-c2cnc(C)nc2OC[C@H]2C[C@@H]2c2ccc3ccccc3n2)cc2nccn12 [Example 131]
Completion: 0.04 nM

Prompt: Enter Ki (test system human PDE10A2 (Homo sapiens (Human), UniProt Q9Y233)) for Cc1ccc([C@H]2C[C@@H]2COc2nc(C)ncc2-c2c(C)cccc2C)nc1 [Example 11]
Completion: 4.43 nM

Prompt: Enter Ki (test system human PDE10A2 (Homo sapiens (Human), UniProt Q9Y233)) for COc1ccc([C@H]2C[C@@H]2COc2nc(C)ncc2-c2cn(C)oc2=O)nc1 [Example 243]
Completion: 6.59 nM

Prompt: Enter Ki (test system human PDE10A2 (Homo sapiens (Human), UniProt Q9Y233)) for COc1ncccc1-c1cnc(C)nc1OC[C@H]1C[C@@H]1c1ccc(C)cn1 [Example 16]
Completion: 0.74 nM

Prompt: Enter Ki (test system human PDE10A2 (Homo sapiens (Human), UniProt Q9Y233)) for Cc1ncc(-c2ccc3nccn3c2)c(OC[C@H]2C[C@@H]2c2ccc3ccccc3n2)n1 [Example 136]
Completion: 0.04 nM

Prompt: Enter Ki (test system human PDE10A2 (Homo sapiens (Human), UniProt Q9Y233)) for CC[C@]1(O)CC[C@H](c2cnc(C)nc2OC[C@H]2C[C@@H]2c2ccc(C)cn2)CC1 [Example 215]
Completion: 15.3 nM

Prompt: Enter Ki (test system human PDE10A2 (Homo sapiens (Human), UniProt Q9Y233)) for COc1ccc([C@H]2C[C@@H]2COc2nc(C)ncc2-c2c[nH]oc2=O)nc1 [Example 242]
Completion: 2.36 nM

Prompt: Enter Ki (test system human PDE10A2 (Homo sapiens (Human), UniProt Q9Y233)) for COc1ccc([C@H]2C[C@@H]2COc2nc(C)ncc2-c2cc(C(F)(F)F)cnc2Cl)nc1 [Example 87]
Completion: 0.44 nM

Prompt: Enter Ki (test system human PDE10A2 (Homo sapiens (Human), UniProt Q9Y233)) for CCc1ccc(-c2cnc(C)nc2OC[C@H]2C[C@@H]2c2ccc3ccccc3n2)cc1 (single isomer, unassigned) [Example 30]
Completion: 0.37 nM

Prompt: Enter Ki (test system human PDE10A2 (Homo sapiens (Human), UniProt Q9Y233)) for Cc1ccc([C@H]2C[C@@H]2COc2nc(C)ncc2-c2cc(O)ccn2)nc1 [Example 53]
Completion: 25.5 nM

Prompt: Enter Ki (test system human PDE10A2 (Homo sapiens (Human), UniProt Q9Y233)) for Cc1ncc(-c2ccc(C(C)(C)O)nc2)c(OC[C@H]2C[C@@H]2c2ccc3ccccc3n2)n1 [Example 157]
Completion: 0.02 nM

Prompt: Enter Ki (test system human PDE10A2 (Homo sapiens (Human), UniProt Q9Y233)) for CCc1ccc(-c2cnc(C)nc2OC[C@H]2C[C@@H]2c2ccc(OC)cn2)cn1 [Example 85]
Completion: 0.86 nM

Prompt: Enter Ki (test system human PDE10A2 (Homo sapiens (Human), UniProt Q9Y233)) for COc1ccc([C@H]2C[C@@H]2COc2nc(C)ncc2-c2ccc(C)nn2)nc1 [Example 102]
Completion: 10.3 nM

Prompt: Enter Ki (test system human PDE10A2 (Homo sapiens (Human), UniProt Q9Y233)) for COc1cc(-c2cnc(C)nc2OC[C@H]2C[C@@H]2c2ccc(C)cn2)cc2nccn12 [Example 132]
Completion: 0.81 nM

Prompt: Enter Ki (test system human PDE10A2 (Homo sapiens (Human), UniProt Q9Y233)) for Cc1ncc(-c2cn(C)nc2CO)c(OC[C@H]2C[C@@H]2c2ccccn2)n1 [Example 116]
Completion: 9.01 nM

----------
# target.or.test.system: human PDE10A2 (Homo sapiens (Human))
API: label(entry) gives 1.0 if the entry's Ki is strictly smaller than 3 nM; on equality or larger values it gives 0.0.

Prompt: Please determine if C=Cc1cnc(C)nc1OC[C@H]1C[C@@H]1c1ccc(C)cn1 [Example 54] is below 3 nM in terms of Ki.
Completion: 0.0

Prompt: Please determine if Cc1ncc(-c2ccc(C(C)O)cc2)c(OC[C@H]2C[C@@H]2c2ccccn2)n1 (some centres unmarked) [Example 122] is below 3 nM in terms of Ki.
Completion: 1.0

Prompt: Please determine if Cc1ccc([C@H]2C[C@@H]2COc2nc(C)ncc2-c2cccc(C(C)C)c2)nc1 [Example 4] is below 3 nM in terms of Ki.
Completion: 1.0

Prompt: Please determine if COc1ccc([C@H]2C[C@@H]2COc2nc(C)ncc2-c2ccc(O)nc2)nc1 [Example 69] is below 3 nM in terms of Ki.
Completion: 1.0

Prompt: Please determine if CCOC(=O)c1[nH]nnc1-c1cnc(C)nc1OC[C@H]1C[C@@H]1c1ccc(OC)cn1 [Example 248] is below 3 nM in terms of Ki.
Completion: 0.0

Prompt: Please determine if COc1ccc([C@H]2C[C@@H]2COc2nc(C)ncc2-c2ccc(C(=O)NCCO)nc2)nc1 [Example 106] is below 3 nM in terms of Ki.
Completion: 1.0

Prompt: Please determine if COc1ccc([C@H]2C[C@@H]2COc2nc(C)ncc2-c2cc(Cl)ncc2OCOCC[Si](C)(C)C)nc1 [Example 112] is below 3 nM in terms of Ki.
Completion: 0.0

Prompt: Please determine if Cc1ccc([C@H]2C[C@@H]2COc2nc(C)ncc2-c2ccc(C(O)C(C)C)nc2)nc1 (some centres unmarked) [Example 140] is below 3 nM in terms of Ki.
Completion: 1.0
